Hello, the source for this data is ChEMBL document CHEMBL1250463, in case you need it.

// reported inhibition for each item listed
- target: NAD-dependent protein deacetylase sirtuin-1 (Homo sapiens) (UniProt Q96EB6)
- experiment description: Inhibition of GST-SIRT1 at 200 uM after 1 hr by Fluor de Lys fluorescence assay
Kindly answer with a numeric value in %, unit omitted.

Worked cases, answers included:
CC(=O)N[C@@H](C)C(=O)N[C@@H](CCCCNC(=O)/C=C(/C)C(F)(F)F)C(=O)N[C@@H](C)C(=O)O; 33
CNC(=O)[C@H](C)NC(=O)[C@H](CCCCNC(=O)C(C)(C)C)NC(=O)[C@H](C)NC(C)=O; 82

I'd like to know its inhibition. The compound in question is CNC(=O)[C@H](C)NC(=O)[C@H](CCCCNC(=O)C=C(C)C)NC(=O)[C@H](C)NC(C)=O
96

Consider the compound COC(=O)[C@H](C)NC(=O)[C@H](CCCCNC(=O)Cc1ccccn1)NC(=O)[C@H](C)NC(C)=O and give its measured inhibition.
26

###

- target: NAD-dependent protein deacetylase sirtuin-1 (Homo sapiens) (UniProt Q96EB6)
- Sequence (whole entry): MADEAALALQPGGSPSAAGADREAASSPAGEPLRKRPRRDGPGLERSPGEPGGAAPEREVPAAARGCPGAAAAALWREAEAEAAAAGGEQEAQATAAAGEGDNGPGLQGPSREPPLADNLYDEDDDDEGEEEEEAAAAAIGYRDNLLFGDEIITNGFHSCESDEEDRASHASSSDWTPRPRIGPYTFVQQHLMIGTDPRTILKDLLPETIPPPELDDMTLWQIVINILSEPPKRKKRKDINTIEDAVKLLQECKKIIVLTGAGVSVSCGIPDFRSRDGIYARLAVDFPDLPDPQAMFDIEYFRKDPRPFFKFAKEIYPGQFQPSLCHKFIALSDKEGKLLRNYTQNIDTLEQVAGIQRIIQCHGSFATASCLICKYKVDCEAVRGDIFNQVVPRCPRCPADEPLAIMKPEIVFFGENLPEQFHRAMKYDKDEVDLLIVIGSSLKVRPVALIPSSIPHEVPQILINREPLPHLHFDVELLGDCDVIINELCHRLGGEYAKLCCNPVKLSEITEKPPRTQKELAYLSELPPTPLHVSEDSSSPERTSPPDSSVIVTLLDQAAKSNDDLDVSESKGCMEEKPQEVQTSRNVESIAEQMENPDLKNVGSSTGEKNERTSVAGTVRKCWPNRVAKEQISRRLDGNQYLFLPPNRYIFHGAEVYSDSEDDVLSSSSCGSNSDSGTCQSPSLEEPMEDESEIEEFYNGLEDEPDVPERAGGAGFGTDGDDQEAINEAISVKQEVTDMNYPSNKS
- experiment description: Inhibition of GST-SIRT1 at 200 uM after 1 hr by Fluor de Lys fluorescence assay
property: inhibition (%)
I only need the number, in %, no unit after it.

Reference set, count: 5
CNC(=O)[C@H](C)NC(=O)[C@H](CCCCNC(=O)c1ccc(N(C)C)cc1)NC(=O)[C@H](C)NC(C)=O; 39
COC(=O)[C@H](C)NC(=O)[C@H](CCCCNC(=O)N(C)C)NC(=O)[C@H](C)NC(C)=O; 24
CP(C)(=S)NCCCC[C@H](NC(=O)OCc1ccccc1)C(=O)Nc1ccccc1; 10
COC(=O)[C@H](C)NC(=O)[C@H](CCCCNC(=O)C1=CCCCC1)NC(=O)[C@H](C)NC(C)=O; 33
CC(=O)NCCCC[C@H](NC(=O)[C@H](C)NC(C)=O)C(=O)N[C@@H](C)C(=O)O; 62

Could you share which inhibition value was measured for COC(=O)[C@H](C)NC(=O)[C@H](CCCCNS(C)(=O)=O)NC(=O)[C@H](C)NC(C)=O ?
17

# get_value(readout='inhibition', item= CC(C)(C)OC(=O)NCCCC[C@H](NC(=O)OCc1ccccc1)C(=O)Nc1ccccc1 )
6
